biological target: Human immunodeficiency virus type 1 integrase (Human immunodeficiency virus 1); assay: Inhibition of HIV1 integrase strand transfer activity
Sequence (Q7ZJM1 whole entry): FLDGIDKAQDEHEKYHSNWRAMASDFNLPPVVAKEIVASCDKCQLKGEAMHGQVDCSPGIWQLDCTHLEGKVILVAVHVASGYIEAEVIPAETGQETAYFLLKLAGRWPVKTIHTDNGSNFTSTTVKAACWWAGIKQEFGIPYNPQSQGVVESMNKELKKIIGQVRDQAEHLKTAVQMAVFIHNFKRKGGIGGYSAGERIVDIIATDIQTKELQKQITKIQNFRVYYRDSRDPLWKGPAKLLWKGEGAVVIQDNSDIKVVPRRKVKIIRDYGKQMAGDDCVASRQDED
Kindly state pIC50 for each of the entries shown.
Value format note: pIC50 is -log10 of concentration (mol/L); just state the number.

Entry COc1ccc(C2C(C(=O)c3ccc(Br)cc3)=C(O)C(=O)N2c2cc(C(C)(C)C)on2)cc1OC (centres undefined) ; pIC50 = 4.37

Form: compound = Cc1ccc(C(=O)C2=C(O)C(=O)N(c3nccs3)C2c2ccc(F)cc2)cc1 (centres undefined) ; pIC50 = 4.11

Given item O=C(C1=C(O)C(=O)N(c2nc3ccccc3s2)C1c1ccccn1)c1ccc(Cl)cc1 (centres undefined) , the value recorded as its pIC50 is 4.08

Reported pIC50 for Cc1ccc(C(=O)C2=C(O)C(=O)N(c3nccs3)C2c2ccc(Cl)cc2)cc1 (centres undefined) was 4.41

Form field pIC50, entry COc1ccc(C2C(C(=O)c3ccc(Br)cc3)=C(O)C(=O)N2c2cccc(C(F)(F)F)c2)cc1OC (centres undefined) : 4.59

Reported pIC50 ( CC(C)(C)c1ccc(C2C(C(=O)c3ccc(F)cc3)=C(O)C(=O)N2c2nncs2)cc1 (centres undefined) ) = 4.37

Lab note: CCOC(=O)c1sc(N2C(=O)C(O)=C(C(=O)c3ccc(C)cc3)C2c2ccc(F)cc2)nc1C (centres undefined) gave pIC50 of 4.48

Quick note, pIC50 for Cc1ccc(C(=O)C2=C(O)C(=O)N(c3ncc(S(=O)(=O)c4ccc([N+](=O)[O-])cc4)s3)C2c2cccc(Cl)c2)cc1 (centres undefined) landed at 5.10

---

I'd be grateful if you could share measured IC50 for these entries.
target: Human immunodeficiency virus type 1 integrase (Human immunodeficiency virus 1); assay: Inhibition of HIV1 integrase strand transfer activity in presence of Mg2+
Quick reminder: number only, in µM, skip the unit.

The recorded IC50 for COc1ccc(OC)c(C(=O)C2=C(O)C(=O)N(CCCCCC(=O)O)C2c2ccc(Cl)cc2)c1 (configuration not stated) is 10

Form: compound = Cc1ccc(C(=O)C2=C(O)C(=O)N(c3ncc(S(=O)(=O)c4ccc([N+](=O)[O-])cc4)s3)C2c2cccc(Cl)c2)cc1 (configuration not stated) ; IC50 = 6.1

---

biological target: Human immunodeficiency virus type 1 integrase (Human immunodeficiency virus 1); assay: Inhibition of HIV1 integrase 3'-end processing activity
Hi! Just check whether IC50 is below 60 µM. Below gives True, equal or above gives False.

Ask: Identify whether the compound Cc1ccc(C(=O)C2=C(O)C(=O)N(c3nccs3)C2c2ccc(Cl)cc2)cc1 (centres undefined) records IC50 below 60 µM.
Result: True

Ask: Problem: For the compound O=C(C1=C(O)C(=O)N(c2nc3ccccc3s2)C1c1ccc2c(c1)OCO2)c1ccccc1 (centres undefined) , is IC50 under 60 µM?
Result: True

Ask: Find out if reported IC50 for CCOC(=O)c1sc(N2C(=O)C(O)=C(C(=O)c3ccc(C)cc3)C2c2ccc(F)cc2)nc1C (centres undefined) is less than 60 µM
Result: False

Ask: Check if IC50 falls below 60 µM for CCOc1ccc(C(=O)C2=C(O)C(=O)N(c3nccs3)C2c2ccc(OC)cc2)cc1 (centres undefined) .
Result: False

Ask: Please let me know if O=C(C1=C(O)C(=O)N(c2nc3ccccc3s2)C1c1ccccn1)c1ccc(Cl)cc1 (centres undefined) shows IC50 below 60 µM.
Result: False

Ask: Does this compound meet the criterion IC50 < 60 µM? CCOC(=O)c1sc(N2C(=O)C(O)=C(C(=O)c3ccccc3)C2c2ccc(F)cc2)nc1C (centres undefined)
Result: True

Ask: Hello, is IC50 of the following compound strictly smaller than 60 µM? Cc1ccc(C(=O)C2=C(O)C(=O)N(CCCn3ccnc3)C2c2ccc(Cl)cc2)cc1 (centres undefined)
Result: False

Ask: Hello, is IC50 of the following compound strictly smaller than 60 µM? O=C(C1=C(O)C(=O)N(c2nc3ccccc3s2)C1c1cccnc1)c1ccc(Cl)cc1 (centres undefined)
Result: False

Ask: Field: below-cutoff. Rule: recorded IC50 strictly less than 60 µM. Subject: COc1ccc(C2C(C(=O)c3ccc(Br)cc3)=C(O)C(=O)N2c2cccc(C(F)(F)F)c2)cc1OC (centres undefined)
Result: True
